Measured values drawn from patent US9963462B2 for this set.

experimental_target: SNAP-hSPR (sepiapterin reductase, SPR) (Homo sapiens)
pIC50: −log10 of the molar value.
Rule: 1 for pIC50 not less than 8, -1 for anything less.

Recorded results for 2 compounds are shown here.
smiles_structure | discrete_label
Cc1noc(C)c1S(=O)(=O)N1CCN(C(=O)c2cnn(-c3nn4cccc4c(=O)[nH]3)c2C)CC1 | 1
Cc1c(C(=O)N2CCN(CC#N)CC2)cnn1-c1nn2cccc2c(=O)[nH]1 | 1

-- ask Decide: pIC50 of `Cc1c(C(=O)N2CCC(C(F)(F)F)CC2)ccnc1-c1nc2ccsc2c(=O)[nH]1` >= 8?
-- reply -1

-- ask Decide: pIC50 of `Cc1c(C(=O)N2CC3(C2)CC(O)(C(F)(F)F)C3)cnn1-c1nn2cccc2c(=O)[nH]1` >= 8?
-- reply 1

-- ask Decide: pIC50 of `Cc1cc(=O)[nH]c(-n2ncc(C(=O)NCC3(c4ccccc4)CCCC3)c2C)n1` >= 8?
-- reply -1

-- ask Decide: pIC50 of `Cc1c(C(=O)N2CCC(c3ccc(F)cn3)CC2)cnn1-c1nn2cccc2c(=O)[nH]1` >= 8?
-- reply 1

-- ask Decide: pIC50 of `Cc1c(C(=O)N2CCN(S(=O)(=O)c3cc(Cl)ccc3Cl)CC2)cnn1-c1nn2cccc2c(=O)[nH]1` >= 8?
-- reply 1

---

Record: pIC50 reported on SNAP-hSPR (sepiapterin reductase, SPR) (Homo sapiens, UniProt P35270).
Sequence (P35270 whole entry): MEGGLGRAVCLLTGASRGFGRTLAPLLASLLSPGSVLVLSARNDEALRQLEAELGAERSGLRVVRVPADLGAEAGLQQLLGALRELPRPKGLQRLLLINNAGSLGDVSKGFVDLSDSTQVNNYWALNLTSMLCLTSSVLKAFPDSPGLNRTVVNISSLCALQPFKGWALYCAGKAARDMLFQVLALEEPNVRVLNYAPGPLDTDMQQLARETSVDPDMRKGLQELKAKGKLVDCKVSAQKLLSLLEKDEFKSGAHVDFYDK
// pIC50 here means minus log10 of the molar concentration (mol/L)

smiles_structure | experimental_target | measured
Cc1c(C(=O)N2CCC(C(=O)CCC(F)(F)F)CC2)cnn1-c1nn2cccc2c(=O)[nH]1 | SNAP-hSPR (sepiapterin reductase, SPR) (Homo sapiens, UniProt P35270) | 9.00
Cc1c(C(=O)N2CCN(CCC(F)(F)F)CC2)cnn1-c1nn2cccc2c(=O)[nH]1 | SNAP-hSPR (sepiapterin reductase, SPR) (Homo sapiens, UniProt P35270) | 8.70
Cc1cc(=O)[nH]c(-n2ncc(C(=O)N3CCS(=O)(=O)CC3)c2C)n1 | SNAP-hSPR (sepiapterin reductase, SPR) (Homo sapiens, UniProt P35270) | 7.40

We now examine a further compound.
-- ask # query: pIC50 | item `Cc1c(C(=O)N2CCN(c3ncc(-c4cccnc4)o3)CC2)cnn1-c1nn2cccc2c(=O)[nH]1` | system: SNAP-hSPR (sepiapterin reductase, SPR) (Homo sapiens, UniProt P35270)
-- reply 9.00

---

Record: pIC50 reported on SNAP-hSPR (sepiapterin reductase, SPR) (Homo sapiens, UniProt P35270).
// pIC50 here means minus log10 of the molar concentration (mol/L)

Use these answered entries as a reference point.
compound | pIC50
Cc1c(C(=O)N2CC(N3CCC(F)(F)C3)C2)cnn1-c1nc2c(ccn2C)c(=O)[nH]1 [Q-1322] | 6.40
Cc1c(C(=O)N2CCCC(O)(C(F)(F)F)CC2)cnn1-c1nn2cccc2c(=O)[nH]1 (centres unmarked) [Q-1118] | 9.00
Cc1c(C(=O)N2CCN(S(=O)(=O)c3ccc(OC(F)(F)F)cc3)CC2)cnn1-c1nn2cccc2c(=O)[nH]1 [Q-1798] | 8.70

-- ask For the compound shown here, O=C(c1ccnc(-c2nc3ccsc3c(=O)[nH]2)c1)N1CCC(C(F)(F)F)CC1 [Q-0515] , give the reported pIC50.
-- reply 7.40

-- ask For the compound shown here, Cc1c(C(=O)N2CCN(c3ccc(Cl)cn3)CC2)cnn1-c1nn2cccc2c(=O)[nH]1 [Q-0835] , give the reported pIC50.
-- reply 8.70

-- ask For the compound shown here, Cc1c(C(=O)N2CCC3(CC2)CC3C(=O)N2CCC2)cnn1-c1nc2c(c(=O)[nH]1)CCC2 (centres unmarked) [Q-1089] , give the reported pIC50.
-- reply 8.52

-- ask For the compound shown here, O=C(c1cnn(-c2nc3c(c(=O)[nH]2)CCC3)c1)N1CCC(c2nc3ccc(F)cc3s2)CC1 [Q-0718] , give the reported pIC50.
-- reply 8.40

-- ask For the compound shown here, Cc1c(C(=O)N2CC(F)(c3ccccc3)C2)cnn1-c1nn2cccc2c(=O)[nH]1 [Q-1038] , give the reported pIC50.
-- reply 8.70
